Numbers sourced from patent US20150086555A1.

Molecular target: recombinant soluble homotrimeric HA, A/chicken/Vietnam/NCVD-016/08 H5N1 (Influenza A virus A/chicken/Vietnam/NCVD-016/2008(H5N1))
Assay: microarray, transfection SN IgG, trimeric HA
Details: remark: other sources report otherwise
measured-metric: Trimeric HA Binding: RLU (RLU)
Express the result in RLU but write the number alone.

# input binder: TCN-554 (5277_M05) (antibody, V domains shown) VH: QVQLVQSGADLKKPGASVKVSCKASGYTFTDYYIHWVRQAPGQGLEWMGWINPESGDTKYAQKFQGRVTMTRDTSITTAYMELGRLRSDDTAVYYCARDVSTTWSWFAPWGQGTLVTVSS VL: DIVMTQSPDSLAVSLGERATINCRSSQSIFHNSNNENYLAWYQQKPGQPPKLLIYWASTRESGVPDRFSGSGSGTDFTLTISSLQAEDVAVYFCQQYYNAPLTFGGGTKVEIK ; wanted: its Trimeric HA Binding: RLU
2710

Ok, now TCN-504 (3251_K17) (antibody, V domains shown) VH: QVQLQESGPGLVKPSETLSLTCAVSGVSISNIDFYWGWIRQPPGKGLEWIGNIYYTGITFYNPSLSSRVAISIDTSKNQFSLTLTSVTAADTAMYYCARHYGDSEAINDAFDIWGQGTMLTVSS VL: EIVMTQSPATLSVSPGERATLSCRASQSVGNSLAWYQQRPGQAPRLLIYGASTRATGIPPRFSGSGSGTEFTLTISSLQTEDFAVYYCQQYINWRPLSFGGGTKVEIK
34200

Next entry: TCN-523 (5248_A17) (antibody, V domains shown) VH: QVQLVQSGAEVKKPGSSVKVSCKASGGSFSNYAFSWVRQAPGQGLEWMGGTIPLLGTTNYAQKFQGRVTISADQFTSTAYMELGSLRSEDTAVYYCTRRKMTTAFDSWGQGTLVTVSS VL: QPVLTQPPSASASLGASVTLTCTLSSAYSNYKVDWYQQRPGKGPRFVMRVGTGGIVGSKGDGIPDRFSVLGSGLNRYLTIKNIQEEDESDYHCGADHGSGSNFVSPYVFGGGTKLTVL
51300
